All values here come from paper PMC8162404.

- TESTED SYSTEM: CaM (Bos taurus)
- Construct: made in house; host or cells: E. coli BL21 (DE3)
- ASSAY SUMMARY: Pull-down assay with immobilized protein and LSM libraries
- Assay type: binding, bovine
- DETAILS: H14 library; 1:2 stoichiometry assumed; read-out: Surface mapping KD (apparent)
Kd for assorted compounds
All answers are understood in µM, so give the number only.

As a guide, the following entries are already answered.
COMPOUND STRUCTURE STRING	RECORDED ENDPOINT	MEASUREMENT
CSCC[C@@H](CC(=O)N[C@H]1CCCC[C@@H]1C(=O)N[C@H]1CCCC[C@@H]1C(=O)N[C@@H](CCC(N)=O)CC(=O)N[C@H]1CCCC[C@@H]1C(N)=O)NC(=O)[C@H]1CCCC[C@@H]1N	Kd	145
CC(C)C[C@@H](CC(=O)N[C@H]1CCCC[C@@H]1C(=O)N[C@H]1CCCC[C@@H]1C(=O)N[C@@H](CO)CC(=O)N[C@H]1CCCC[C@@H]1C(N)=O)NC(=O)[C@H]1CCCC[C@@H]1N	Kd	99
CC(C)[C@@H](CC(=O)N[C@H]1CCCC[C@@H]1C(=O)N[C@H]1CCCC[C@@H]1C(=O)N[C@@H](C)CC(=O)N[C@H]1CCCC[C@@H]1C(N)=O)NC(=O)[C@H]1CCCC[C@@H]1N	Kd	38

Request: Give its Kd value. Item: NC(=O)[C@H]1CCCC[C@@H]1NC(=O)C[C@H](CO)NC(=O)[C@H]1CCCC[C@@H]1NC(=O)[C@H]1CCCC[C@@H]1NC(=O)C[C@H](Cc1c[nH]c2ccccc12)NC(=O)[C@H]1CCCC[C@@H]1N
Result: 9

Request: Item under review: NC(=O)CC[C@@H](CC(=O)N[C@H]1CCCC[C@@H]1C(=O)N[C@H]1CCCC[C@@H]1C(=O)N[C@@H](CC(=O)O)CC(=O)N[C@H]1CCCC[C@@H]1C(N)=O)NC(=O)[C@H]1CCCC[C@@H]1N . Reported Kd?
Result: 231
